Source: the supplement of paper PMC11246515

assay: total protein half-life in vivo (active degradation + dilution); higher = more stable protein; settings: wild type E. coli NCM3722; growth: N-lim chemostat; doubling time 6 h

chain.sequence: MPKKNEAPASFEKALSELEQIVTRLESGDLPLEEALNEFERGVQLARQGQAKLQQAEQRVQILLSDNEDASLTPFTPDNE [P0A8G9]
units.symbol: h
total protein half-life in vivo: 5.09
//
chain.sequence: MRYHGDMLLTTPVISTLKQNYPDAKIDMLLYQDTIPILSENPEINALYGISNKGAGTFDKIKNVLSLIKTLRANNYDLVINLTDQWMVALLVRCLPARMKISQLYGHRQHGIWKKSFTHLAPIHGTHIVERNLSVLEPLGITDFYTDTTMSYAEDCWKKMRRELDALGVKDHYVVIQPTARQIFKCWDNDKFSKVIDALQQRGYQVVLTCGPSADDLACVDEIARGCETKPITGLAGKTRFPELGALIDHAVLFIGVDSAPGHIAAAVKTPVISLFGATDHVFWRPWTENIIQFWAGNYQKMPTRHELDRNKKYLSVIPAEDVIAATEKLLPEDAPSADRNAQL
units.symbol: h
total protein half-life in vivo: 5.89
//
chain.sequence: MSHLAELVASAKAAISQASDVAALDNVRVEYLGKKGHLTLQMTTLRELPPEERPAAGAVINEAKEQVQQALNARKAELESAALNARLAAETIDVSLPGRRIENGGLHPVTRTIDRIESFFGELGFTVATGPEIEDDYHNFDALNIPGHHPARADHDTFWFDTTRLLRTQTSGVQIRTMKAQQPPIRIIAPGRVYRNDYDQTHTPMFHQMEGLIVDTNISFTNLKGTLHDFLRNFFEEDLQIRFRPSYFPFTEPSAEVDVMGKNGKWLEVLGCGMVHPNVLRNVGIDPEVYSGFAFGMGMERLTMLRYGVTDLRSFFENDLRFLKQFK
units.symbol: h
total protein half-life in vivo: 5.37

---

test: total protein half-life in vivo (active degradation + dilution); higher = more stable protein; conditions: wild type E. coli NCM3722; growth: N-lim chemostat; doubling time 6 h
// label = y if total protein half-life in vivo is not less than 3 h, otherwise n

chain.sequence: MAEAQNDPLLPGYSFNAHLVAGLTPIEANGYLDFFIDRPLGMKGYILNLTIRGQGVVKNQGREFVCRPGDILLFPPGEIHHYGRHPEAREWYHQWVYFRPRAYWHEWLNWPSIFANTGFFRPDEAHQPHFSDLFGQIINAGQGEGRYSELLAINLLEQLLLRRMEAINESLHPPMDNRVREACQYISDHLADSNFDIASVAQHVCLSPSRLSHLFRQQLGISVLSWREDQRISQAKLLLSTTRMPIATVGRNVGFDDQLYFSRVFKKCTGASPSEFRAGCEEKVNDVAVKLS [P0A9E0]
class.name: n
//
chain.sequence: MIDLRSDTVTRPSRAMLEAMMAAPVGDDVYGDDPTVNALQDYAAELSGKEAAIFLPTGTQANLVALLSHCERGEEYIVGQAAHNYLFEAGGAAVLGSIQPQPIDAAADGTLPLDKVAMKIKPDDIHFARTKLLSLENTHNGKVLPREYLKEAWEFTRERNLALHVDGARIFNAVVAYGCELKEITQYCDSFTICLSKGLGTPVGSLLVGNRDYIKRAIRWRKMTGGGMRQSGILAAAGIYALKNNVARLQEDHDNAAWMAEQLREAGADVMRQDTNMLFVRVGEENAAALGEYMKARNVLINASPIVRLVTHLDVSREQLAEVAAHWRAFLAR
class.name: y
//
chain.sequence: MVLWQSDLRVSWRAQWLSLLIHGLVAAVILLMPWPLSYTPLWMVLLSLVVFDCVRSQRRINARQGEIRLLMDGRLRWQGQEWSIVKAPWMIKSGMMLRLRSDGGKRQHLWLAADSMDEAEWRDLRRILLQQETQR
class.name: y
//
chain.sequence: MERVYRTDLKLLRYFLAVAEELHFGRAAARLNMSQPPLSIHIKELENQLGTQLFIRHSRSVVLTHAGKILMEESRRLLVNANNVLARIEQIGRGEAGRIELGVVGTAMWGRMRPVMRRFLRENPNVDVLFREKMPAMQMALLERRELDAGIWRMATEPPTGFTSLRLHESAFLVAMPEEHHLSSFSTVPLEALRDEYFVTMPPVYTDWDFLQRVCQQVGFSPVVIREVNEPQTVLAMVSMGIGITLIADSYAQMNWPGVIFRPLKQRIPADLYIVYETQQVTPAMVKLLAALTQ
class.name: y
//
chain.sequence: MNYEIKQEEKRTVAGFHLVGPWEQTVKKGFEQLMMWVDSKNIVPKEWVAVYYDNPDETPAEKLRCDTVVTVPGYFTLPENSEGVILTEITGGQYAVAVARVVGDDFAKPWYQFFNSLLQDSAYEMLPKPCFEVYLNNGAEDGYWDIEMYVAVQPKHH
class.name: y
